Source of measurements: patent US20240376200A1

Measured EC50 fold change from Ab1 values are reported for all entries that follow.
EXPERIMENTAL_TARGET: recombinant Antigen 1 (recombinant Ab1 target; recombinant integrin αvβ6 antigen)
Sequence (P06756 31-992, chain 1 of 2): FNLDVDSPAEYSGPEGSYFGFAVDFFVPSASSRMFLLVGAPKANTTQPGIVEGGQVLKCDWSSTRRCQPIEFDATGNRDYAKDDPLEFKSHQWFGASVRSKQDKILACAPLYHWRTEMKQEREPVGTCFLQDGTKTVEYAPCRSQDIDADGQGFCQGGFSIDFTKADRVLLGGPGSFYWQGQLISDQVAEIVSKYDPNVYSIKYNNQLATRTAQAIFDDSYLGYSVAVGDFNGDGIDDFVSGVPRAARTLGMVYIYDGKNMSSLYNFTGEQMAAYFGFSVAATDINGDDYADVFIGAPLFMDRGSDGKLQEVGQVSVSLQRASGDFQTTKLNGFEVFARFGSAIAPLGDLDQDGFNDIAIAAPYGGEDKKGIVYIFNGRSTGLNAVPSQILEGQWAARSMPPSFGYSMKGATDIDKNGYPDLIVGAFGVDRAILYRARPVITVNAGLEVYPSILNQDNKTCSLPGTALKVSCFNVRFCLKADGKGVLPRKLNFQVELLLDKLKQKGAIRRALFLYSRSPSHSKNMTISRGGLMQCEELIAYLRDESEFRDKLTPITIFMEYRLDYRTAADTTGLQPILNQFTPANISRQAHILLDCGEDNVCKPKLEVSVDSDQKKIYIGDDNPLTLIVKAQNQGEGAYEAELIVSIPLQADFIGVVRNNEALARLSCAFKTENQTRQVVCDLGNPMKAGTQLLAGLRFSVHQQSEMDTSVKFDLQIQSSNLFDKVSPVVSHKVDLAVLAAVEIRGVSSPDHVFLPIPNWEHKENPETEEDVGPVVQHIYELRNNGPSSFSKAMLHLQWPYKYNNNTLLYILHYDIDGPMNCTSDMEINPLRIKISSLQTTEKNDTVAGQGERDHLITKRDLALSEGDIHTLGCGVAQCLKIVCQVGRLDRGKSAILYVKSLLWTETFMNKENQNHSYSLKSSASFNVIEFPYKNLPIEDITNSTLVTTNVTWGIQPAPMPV
Sequence (P18564 22-709, chain 2 of 2, further chain): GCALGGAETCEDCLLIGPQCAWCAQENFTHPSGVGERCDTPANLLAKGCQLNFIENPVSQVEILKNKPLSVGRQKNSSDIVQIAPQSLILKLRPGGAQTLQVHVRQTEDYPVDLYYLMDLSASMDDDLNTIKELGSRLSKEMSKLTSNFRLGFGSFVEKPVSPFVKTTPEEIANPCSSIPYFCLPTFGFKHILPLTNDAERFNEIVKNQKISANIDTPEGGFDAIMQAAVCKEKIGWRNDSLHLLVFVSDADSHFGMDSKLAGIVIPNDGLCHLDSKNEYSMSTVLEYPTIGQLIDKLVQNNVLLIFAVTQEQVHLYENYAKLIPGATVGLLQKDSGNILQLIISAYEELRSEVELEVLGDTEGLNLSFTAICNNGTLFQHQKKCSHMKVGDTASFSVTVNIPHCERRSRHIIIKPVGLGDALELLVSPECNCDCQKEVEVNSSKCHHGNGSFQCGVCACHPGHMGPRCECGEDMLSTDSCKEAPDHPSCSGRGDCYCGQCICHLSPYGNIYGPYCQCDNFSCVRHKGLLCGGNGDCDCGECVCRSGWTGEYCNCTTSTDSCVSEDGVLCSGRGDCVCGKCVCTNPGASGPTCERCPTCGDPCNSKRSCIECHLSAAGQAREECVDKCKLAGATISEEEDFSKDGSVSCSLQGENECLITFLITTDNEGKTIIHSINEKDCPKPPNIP
PROTOCOL_TEXT: saturation binding ELISA
Entry rule: numbers only, all in fold.

As a guide, the following entries are already answered.
{"BINDER": "Vel-IPV-Ab1 Coil 118 (antibody, part only; not given: Ab1 heavy and light chains, part only) heavy, part: QGASTSVDELQAEVDQLEDENYAFKTKVAQLRKKVEKLGSIPVSLRSG light, part: QGASTTVAQLEEKVKTLRAENYESKSEVQRLEEQVAQLGSIPVSLRSG", "RECORDED_MEASUREMENT": 181}
{"BINDER": "Vel-IPV-Ab1 Coil 114 (antibody, part only; not given: Ab1 heavy and light chains, part only) heavy, part: QGASTSVDELQAEVDQLEDENYAWKTKVAQLRKKVEKLGSIPVSLRSG light, part: QGASTTVAQLEEKVKTLRAENYEFKSEVQRLEEQVAQLGSIPVSLRSG", "RECORDED_MEASUREMENT": 959}
{"BINDER": "Vel-IPV-Ab1 Coil 137 (antibody, part only; not given: Ab1 heavy and light chains, part only) heavy, part: QGASTSVDELQAEVDQLEDENYAVKTKVAQLRKKVEKLGSIPVSLRSG light, part: QGASTTVAQLEEKVKTLRAENYELKSEVQRLEEQVAQLGSIPVSLRSG", "RECORDED_MEASUREMENT": 584}

Exercise: Recorded EC50 fold change from Ab1 for Vel-IPV-Ab1 Coil 134 (antibody, part only; not given: Ab1 heavy and light chains, part only) heavy, part: QGASTSVDELQAEVDQLEDENYAKKTKVAQLRKKVEKLGSIPVSLRSG light, part: QGASTTVAQLEEKVKTLRAENYEIKSEVQRLEEQVAQLGSIPVSLRSG , please?
Key: 67

Exercise: Which EC50 fold change from Ab1 value belongs to Vel-IPV-Ab1 Coil 111 (antibody, part only; not given: Ab1 heavy and light chains, part only) heavy, part: QGASTSVDELQAEVDQLEDENYAGKTKVAQLRKKVEKLGSIPVSLRSG light, part: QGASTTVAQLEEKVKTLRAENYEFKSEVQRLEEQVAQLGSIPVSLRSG ?
Key: 2140

Exercise: Quick one: EC50 fold change from Ab1 for Vel-IPV-Ab1 Coil 121 (antibody, part only; not given: Ab1 heavy and light chains, part only) heavy, part: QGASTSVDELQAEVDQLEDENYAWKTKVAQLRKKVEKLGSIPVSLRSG light, part: QGASTTVAQLEEKVKTLRAENYEAKSEVQRLEEQVAQLGSIPVSLRSG ?
Key: 562

Exercise: What value of EC50 fold change from Ab1 has been reported for the following binder? Vel-IPV-Ab1 Coil 129 (antibody, part only; not given: Ab1 heavy and light chains, part only) heavy, part: QGASTSVDELQAEVDQLEDENYASKTKVAQLRKKVEKLGSIPVSLRSG light, part: QGASTTVAQLEEKVKTLRAENYEYKSEVQRLEEQVAQLGSIPVSLRSG
Key: 306

Exercise: Entry under review: Vel-IPV-Ab1 Coil 149 (antibody, part only; not given: Ab1 heavy and light chains, part only) heavy, part: QGASTSVDELQAEVDQLEDENYAIKTKIAQLRKKVEKLGSIPVSLRSG light, part: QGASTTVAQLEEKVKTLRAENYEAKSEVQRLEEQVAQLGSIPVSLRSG . Reported EC50 fold change from Ab1?
Key: 182

Exercise: Look up EC50 fold change from Ab1: Vel-IPV-Ab1 Coil 116 (antibody, part only; not given: Ab1 heavy and light chains, part only) heavy, part: QGASTSVDELQAEVDQLEDENYAAKTKVAQLRKKVEKLGSIPVSLRSG light, part: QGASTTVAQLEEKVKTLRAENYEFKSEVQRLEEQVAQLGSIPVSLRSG
Key: 1270
